Test System: APM (Sus scrofa, UniProt P15145, species not given)
Sequence (P15145 2-963): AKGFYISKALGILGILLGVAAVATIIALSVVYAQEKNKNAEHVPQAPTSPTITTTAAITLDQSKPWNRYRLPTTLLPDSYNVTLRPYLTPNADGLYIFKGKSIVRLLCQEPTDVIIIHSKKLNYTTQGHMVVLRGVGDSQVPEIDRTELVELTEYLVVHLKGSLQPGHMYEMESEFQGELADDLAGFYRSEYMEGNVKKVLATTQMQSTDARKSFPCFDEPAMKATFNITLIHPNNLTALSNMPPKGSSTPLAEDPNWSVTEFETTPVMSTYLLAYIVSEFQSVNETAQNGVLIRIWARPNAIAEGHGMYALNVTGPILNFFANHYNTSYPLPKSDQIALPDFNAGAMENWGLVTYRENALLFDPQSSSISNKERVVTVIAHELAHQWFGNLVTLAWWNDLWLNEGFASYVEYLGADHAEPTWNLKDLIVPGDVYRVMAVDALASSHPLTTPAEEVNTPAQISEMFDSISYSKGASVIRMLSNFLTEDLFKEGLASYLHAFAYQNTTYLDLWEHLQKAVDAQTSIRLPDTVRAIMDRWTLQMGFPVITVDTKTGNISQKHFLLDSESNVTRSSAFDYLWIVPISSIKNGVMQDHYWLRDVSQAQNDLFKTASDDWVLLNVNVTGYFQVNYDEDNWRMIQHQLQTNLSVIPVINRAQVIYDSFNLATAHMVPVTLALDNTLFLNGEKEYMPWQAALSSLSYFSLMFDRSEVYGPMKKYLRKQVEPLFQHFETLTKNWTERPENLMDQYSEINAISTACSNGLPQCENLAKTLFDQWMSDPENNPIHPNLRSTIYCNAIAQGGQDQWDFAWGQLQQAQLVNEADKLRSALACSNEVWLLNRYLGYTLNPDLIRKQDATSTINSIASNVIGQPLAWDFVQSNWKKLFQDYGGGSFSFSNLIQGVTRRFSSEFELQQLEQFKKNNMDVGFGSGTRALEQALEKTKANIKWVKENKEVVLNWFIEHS
Procedure Summary: Degradation rates of EMs by purified APM with and without inhibitors
Type: biochemical
Measurement Parameters: purified APM (commercially available enzyme), pH 7.4
Observable: half-life (min)
# output: bare number, implied unit min

Request: Query the reported half-life for APM (Sus scrofa, UniProt P15145, species not given); item: NC(=O)[C@H](Cc1ccccc1)NC(=O)[C@H](Cc1c[nH]c2ccccc12)NC(=O)[C@@H]1CCCN1C(=O)[C@@H](N)Cc1ccc(O)cc1
Result: 19.7
